- SYSTEM NAME: HLA-B*07:02
- ASSAY TEXT: IEDB peptide-MHC binding, purified MHC/competitive/fluorescence; filed as Kd, often an IC50 or EC50 that approximates it; bounds were set here for any values at or beyond the usual limits of such assays
- ASSAY CONTEXT: source organism: Pleistophora sp. LS
METRIC: Kd

Q: So what's the measured Kd for this one? VELQIGWTV
A: ≥ 20 µM

* * *

- SYSTEM NAME: HLA-A*02:01
- ASSAY TEXT: IEDB peptide-MHC binding, purified MHC/competitive/fluorescence; filed as Kd, often an IC50 or EC50 that approximates it; bounds were set here for any values at or beyond the usual limits of such assays
- ASSAY CONTEXT: source organism: Influenza A virus (A/Harbin/1/1988(H1N2))
METRIC: pKd
One number for each entry, as −log10 of the molar value.

Q: So what's the measured pKd for this one? TVLEKNVTV
A: 8.24

* * *

- SYSTEM NAME: HLA-A*24:03
- ASSAY TEXT: IEDB peptide-MHC binding, purified MHC/direct/fluorescence; filed as Kd, often an IC50 or EC50 that approximates it; bounds were set here for any values at or beyond the usual limits of such assays
- ASSAY CONTEXT: source organism: Giardia lamblia ATCC 50803
pKd: −log10 of the molar value.
METRIC: pKd

Q: // fetch HLA-A*24:03 pKd for MHDPHSIPL
A: ≤ 4.70

* * *

- SYSTEM NAME: HLA-A*32:07
- ASSAY TEXT: IEDB peptide-MHC binding, purified MHC/competitive/fluorescence; filed as Kd, often an IC50 or EC50 that approximates it; bounds were set here for any values at or beyond the usual limits of such assays
- ASSAY CONTEXT: source organism: Yersinia pestis Nepal516
METRIC: Kd (nM)
Answers are plain numbers, in nM.

Q: // fetch HLA-A*32:07 Kd for MMMSTAVAF
A: 94.5

* * *

- SYSTEM NAME: HLA-B*48:01
- ASSAY TEXT: IEDB peptide-MHC binding, purified MHC/direct/fluorescence; filed as Kd, often an IC50 or EC50 that approximates it; bounds were set here for any values at or beyond the usual limits of such assays
- ASSAY CONTEXT: source organism: Camelpox virus M-96
pKd: −log10 of the molar value.
For each record, write down the corresponding pKd.

KELENEYYF
≤ 4.70

Here's the next entry for you.
Q: So what's the measured pKd for this one? NSNINVINY
A: ≤ 4.70

* * *

- SYSTEM NAME: HLA-A*26:01
- ASSAY TEXT: IEDB peptide-MHC binding, purified MHC/direct/fluorescence; filed as Kd, often an IC50 or EC50 that approximates it; bounds were set here for any values at or beyond the usual limits of such assays
- ASSAY CONTEXT: source organism: Bacillus cereus H3081.97
METRIC: Kd (nM)
Give bare numbers, in nM.

Q: So what's the measured Kd for this one? TVIRFWHAM
A: 12

* * *

- SYSTEM NAME: HLA-A*32:01
- ASSAY TEXT: IEDB peptide-MHC binding, purified MHC/competitive/radioactivity; filed as Kd, often an IC50 or EC50 that approximates it; bounds were set here for any values at or beyond the usual limits of such assays
- ASSAY CONTEXT: source organism: Dengue virus 3 Martinique/1243/1999
METRIC: pKd
Numbers only, as −log10 of the molar value.

Q: So what's the measured pKd for this one? NALKINWYKK
A: 5.67

* * *

- SYSTEM NAME: HLA-C*04:01
- ASSAY TEXT: IEDB peptide-MHC binding, purified MHC/competitive/fluorescence; filed as Kd, often an IC50 or EC50 that approximates it; bounds were set here for any values at or beyond the usual limits of such assays
- ASSAY CONTEXT: source organism: Yersinia pestis Nepal516
METRIC: Kd (µM)
Answers are plain numbers, in µM.

Q: So what's the measured Kd for this one? MMMSTAVAF
A: 3.23

* * *

- SYSTEM NAME: HLA-A*03:01
- ASSAY TEXT: IEDB peptide-MHC binding, purified MHC/direct/fluorescence; filed as Kd, often an IC50 or EC50 that approximates it; bounds were set here for any values at or beyond the usual limits of such assays
- ASSAY CONTEXT: source organism: Yellow fever virus
pKd: −log10 of the molar value.
For each record, write down the corresponding pKd.

SCRVKLSAL
≤ 4.70

Here's the next entry for you.
Q: // fetch HLA-A*03:01 pKd for GSRAYRNAL
A: ≤ 4.70

* * *

- SYSTEM NAME: HLA-B*39:01
- ASSAY TEXT: IEDB peptide-MHC binding, purified MHC/direct/fluorescence; filed as Kd, often an IC50 or EC50 that approximates it; bounds were set here for any values at or beyond the usual limits of such assays
- ASSAY CONTEXT: source organism: Influenza A virus (A/chicken/Hebei/706/2005(H5N1))
METRIC: Kd

Q: So what's the measured Kd for this one? EMIWDPNGW
A: ≥ 20 µM

* * *

- SYSTEM NAME: HLA-A*02:03
- ASSAY TEXT: IEDB peptide-MHC binding, purified MHC/competitive/fluorescence; filed as Kd, often an IC50 or EC50 that approximates it; bounds were set here for any values at or beyond the usual limits of such assays
- ASSAY CONTEXT: source organism: Vibrio antiquarius
pKd: −log10 of the molar value.
METRIC: pKd

Q: So what's the measured pKd for this one? SLTIPSFYT
A: ≤ 4.70

* * *

- SYSTEM NAME: HLA-B*15:42
- ASSAY TEXT: IEDB peptide-MHC binding, purified MHC/competitive/fluorescence; filed as Kd, often an IC50 or EC50 that approximates it; bounds were set here for any values at or beyond the usual limits of such assays
- ASSAY CONTEXT: source organism: Pan troglodytes
METRIC: Kd

Q: So what's the measured Kd for this one? RRHWGGNVL
A: ≥ 5 µM

* * *

- SYSTEM NAME: HLA-A*01:01
- ASSAY TEXT: IEDB peptide-MHC binding, purified MHC/direct/fluorescence; filed as Kd, often an IC50 or EC50 that approximates it; bounds were set here for any values at or beyond the usual limits of such assays
- ASSAY CONTEXT: source organism: Camelpox virus CMS
METRIC: Kd

Q: So what's the measured Kd for this one? REVFYFGKF
A: ≥ 20 µM

* * *

- SYSTEM NAME: HLA-B*15:01
- ASSAY TEXT: IEDB peptide-MHC binding, purified MHC/direct/fluorescence; filed as Kd, often an IC50 or EC50 that approximates it; bounds were set here for any values at or beyond the usual limits of such assays
- ASSAY CONTEXT: source organism: Entamoeba histolytica
METRIC: pKd
Answers are plain numbers, as −log10 of the molar value.

Q: // fetch HLA-B*15:01 pKd for KLMPGSIYV
A: 6.90

* * *

For each record, write down the corresponding Kd.
- SYSTEM NAME: HLA-B*40:02
- ASSAY TEXT: IEDB peptide-MHC binding, purified MHC/competitive/radioactivity; filed as Kd, often an IC50 or EC50 that approximates it; bounds were set here for any values at or beyond the usual limits of such assays
- ASSAY CONTEXT: source organism: SARS coronavirus Tor2
Numbers only, in nM.

MELPTGVHA
2740
SEAFLIGANY
348
LEVKFNAPA
9.33
EEVAIILASF
406
CELYHYQECV
8200
SEFSSLPSYA
22.4
FERDISNVPF
1950

Q: So what's the measured Kd for this one? SELRPDTRY
A: 3140

* * *

- SYSTEM NAME: HLA-A*11:01
- ASSAY TEXT: IEDB peptide-MHC binding, purified MHC/direct/fluorescence; filed as Kd, often an IC50 or EC50 that approximates it; bounds were set here for any values at or beyond the usual limits of such assays
- ASSAY CONTEXT: source organism: Bacillus anthracis
METRIC: pKd
One number for each entry, as −log10 of the molar value.

Q: So what's the measured pKd for this one? ATFLWWIPL
A: 7.91

* * *

- SYSTEM NAME: HLA-A*02:02
- ASSAY TEXT: IEDB peptide-MHC binding, purified MHC/competitive/radioactivity; filed as Kd, often an IC50 or EC50 that approximates it; bounds were set here for any values at or beyond the usual limits of such assays
- ASSAY CONTEXT: source organism: Lassa virus Josiah
METRIC: Kd

Q: So what's the measured Kd for this one? ALMDCIMFDA
A: 5.25 nM

* * *

- SYSTEM NAME: HLA-B*35:01
- ASSAY TEXT: IEDB peptide-MHC binding, purified MHC/competitive/fluorescence; filed as Kd, often an IC50 or EC50 that approximates it; bounds were set here for any values at or beyond the usual limits of such assays
- ASSAY CONTEXT: source organism: Shigella flexneri 2a str. 301
METRIC: Kd (nM)
Give bare numbers, in nM.

Q: So what's the measured Kd for this one? KPVGWAMSF
A: 0.4
